test: qHTS Assay for Modulators of miRNAs and/or Inhibitors of miR-21; details: HeLa miR-21-FLuc reporter, luciferase luminescence, 48 h; actives lower the signal; further: potency means the concentration at half of the fitted maximal effect; nearly all actives have a fitted effect of over 55% in size
Screen size: about 340,000 compounds; about 3,300 (0.97%) were called active. About 9% were inconclusive and are not listed. Some of the results follow.
measured attribute: Potency

I am curious: what Potency value has been reported for CCN1CCN(c2cc3c(nn2)Oc2ccccc2N3C)CC1 ?
7.36 µM (active)

Would you kindly repeat that for Cc1nc(C#N)c(N/N=C/c2cccc(Cl)c2)o1 ?
7.36 µM (active)

Input Cc1cc(-c2ccc(Br)cc2)n[nH]1
13.1 µM (active)

Next entry: CCC(CC)C(=O)Nc1nnc(S(=O)(=O)N2c3ccccc3CC2C)s1 (stereo not drawn)
2.61 µM (active)

Entry to check: Cn1c(=O)n(C)c2cc(NS(=O)(=O)c3ccc(F)cc3)c(NCc3ccccc3)cc21
9.27 µM (active)

Okay, and CCSc1nc(N)nc(-c2cccs2)c1C#N ?
16.5 µM (active)

Also need O=C1/C(=C\c2cccs2)Sc2ccc3ccccc3c21 , thanks.
0.521 µM (active)

Please give the result for Cc1cc(C(=O)COC(=O)c2ccco2)c(C)n1Cc1ccco1 too.
4.65 µM (active)

Input Cn1c(=O)n(CCOc2ccccc2Cl)c2ccccc21
7.36 µM (active)

Param item: CC(C)Sc1nc(N)nc(-c2cccs2)c1C#N
2.93 µM (active)

Now the compound O=C(COc1ccc2c(c1)OCO2)Nc1cccc(F)c1
8.26 µM (active)

Next compound: Cc1cccc(C)c1OCC(=O)Nc1cccc(C(=O)O)c1
1.85 µM (active)

// next record Cc1cc(C(=O)N/N=C/c2c(C)nn(-c3ccccc3)c2C)c(C)o1
8.26 µM (active)

Note, next up: CN(C)c1ccc(N=Nc2cccc(F)c2)cc1
2.07 µM (active)

Subsequent entry: Cc1ccc(OCC(=O)Nc2ccccc2[N+](=O)[O-])c(Br)c1
1.31 µM (active)

Please give the result for O=C(COc1ccc2c(c1)OCO2)Nc1ccc(Cl)cn1 too.
2.07 µM (active)

Now consider O=C(COc1ccc2c(c1)OCO2)Nc1ccccc1C(F)(F)F and answer again.
16.5 µM (active)

And the next one, Cn1c(CSc2nc3ccccc3s2)nc2ccccc21 ?
4.14 µM (active)

Then what about the compound CC(C)(C)c1cc(NC(=O)c2cccc([N+](=O)[O-])c2)no1 ?
1.47 µM (active)

Record: CC(C)(C)C1(C)OC(=O)C(=Cc2ccc(OCC(=O)Nc3ccccc3)cc2)C(=O)O1 (stereo not drawn)
11.7 µM (active)

Same thing, different compound: COc1ccccc1-c1cc(C(=O)N2CCCC2)no1
1.85 µM (active)

Entry to check: CC(C)(C)c1ccc(C(=O)Nc2ccc([N+](=O)[O-])cn2)cc1
0.464 µM (active)

Follow-up item: COC(=O)c1ccc(COc2ccc(C)cc2[N+](=O)[O-])o1
13.1 µM (active)

Next: c1cn2c(NC3CCCC3)c(-c3ccc(N4CCOCC4)cc3)nc2cn1
6.56 µM (active)

Next: COc1ccc(-c2cnc3c(-c4ccc(F)cc4)cnn3c2N)cc1
0.521 µM (active)

Also O=C(/C=C/c1ccccc1[N+](=O)[O-])Nc1cccnc1 , if possible.
7.36 µM (active)

Try this compound too: O=C(CCS(=O)(=O)c1ccccc1)NC12CC3CC(CC(C3)C1)C2
2.07 µM (active)

Continue with c1ccc(-c2cc3nccc(-c4ccccn4)n3n2)cc1
3.69 µM (active)

Lookup Cc1ccc(Cl)c(OCC(=O)Nc2cccnc2)c1
3.29 µM (active)

What about Nc1c(-c2cccs2)cnc2c(-c3ccc(F)cc3)cnn12 ?
0.329 µM (active)

And the next one, COCCCNC(=O)COc1ccc(Br)cc1Cl ?
10.4 µM (active)

Now consider CC1Cc2ccccc2N1C(=O)COc1ccc2c(c1)OCO2 (stereo not drawn) and answer again.
11.7 µM (active)

What do you get for CCN(CC)C(=O)c1cc(-c2ccccc2OC)on1 ?
13.1 µM (active)
